study_system: Avi-KRAS G12D (1-169) GppNHp/RAF1 RBD-3xFLAG (52-151) (Homo sapiens, UniProt P01116, G12D)
Construct: Avi-KRAS G12D (1-169)
Sequence (P01116 1-169 isoform P01116-2 G12D): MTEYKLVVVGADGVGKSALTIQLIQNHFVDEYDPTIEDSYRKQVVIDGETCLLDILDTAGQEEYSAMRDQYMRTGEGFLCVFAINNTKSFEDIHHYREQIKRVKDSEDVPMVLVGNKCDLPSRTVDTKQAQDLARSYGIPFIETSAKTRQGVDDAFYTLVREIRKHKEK
assay_summary: Raf1-KRAS G12D-GppNHP disruption HTRF assay (Biological Example 1)
Type: binding
conditions_used: KRAS G12D, GppNHp-loaded; Table 11
experimental_endpoint: IC50

N#Cc1c(N)sc2c(F)ccc(-c3c(C(F)(F)F)cc4c(N5CC6(COC6)C5)nc(OC[C@@]56CCCN5C[C@H](F)C6)nc4c3F)c12 [Compound 149]; 0.1 to 1 µM
N#Cc1c(N)sc2c(F)ccc(-c3c(C(F)(F)F)cc4c(N5CC(F)C5)nc(OC[C@@]56CCCN5C[C@H](F)C6)nc4c3F)c12 [Compound 222]; 0.1 to 1 µM
CC(=O)N1CC[C@@H](N(C)c2nc(OC[C@@]34CCCN3C[C@H](F)C4)nc3c(F)c(-c4ccc(F)c5sc(N)c(C#N)c45)c(C(F)(F)F)cc23)[C@H]1C (single isomer, unassigned) [Compound 193]; < 0.1 µM
CN(C)C(=O)CN(C)c1nc(OC[C@@]23CCCN2C[C@H](F)C3)nc2c(F)c(-c3ccc(F)c4sc(N)c(C#N)c34)c(C(F)(F)F)cc12 [Compound 208]; 0.1 to 1 µM
Nc1nc2c(-c3c(C(F)(F)F)cc4c(NC[C@@H]5CC[C@H](CO)C5)nc(OCC56CCCN5CCC6)nc4c3F)ccc(F)c2s1 [Compound 68]; > 10 µM

Q) # return recorded IC50 for input CCCN(C)c1nc(OC[C@@]23CCCN2C[C@H](F)C3)nc2c(F)c(-c3ccc(F)c4sc(N)c(C#N)c34)c(C(F)(F)F)cc12 [Compound 120]
A) 0.1 to 1 µM

Q) Please look at this molecule and report its IC50: CC(=O)NC1CN(c2nc(OC[C@@]34CCCN3C[C@H](F)C4)nc3c(F)c(-c4ccc(F)c5sc(N)c(C#N)c45)c(C(F)(F)F)cc23)C1 [Compound 88]
A) 0.1 to 1 µM

Q) Specify measured IC50 for CN(c1nc(OCC2(CN3CCOCC3)CC2)nc2c(F)c(-c3ccc(F)c4sc(N)nc34)c(C(F)(F)F)cc12)[C@H]1C[C@@H](O)C1 (atropisomer, axis not shown) [Compound 16] .
A) 1 to 10 µM

Q) Answer with reported IC50 of N#Cc1c(N)sc2c(F)ccc(-c3c(C(F)(F)F)cc4c(N5CCCC6(CC(O)C6)C5)nc(OC[C@@]56CCCN5C[C@H](F)C6)nc4c3F)c12 (some centres unmarked) [Compound 231]
A) 1 to 10 µM

Q) Give IC50 for CCN(c1nc(OC[C@@]23CCCN2C[C@H](F)C3)nc2c(F)c(-c3ccc(F)c4sc(N)c(C#N)c34)c(C(F)(F)F)cc12)[C@@H]1CCN(C(C)=O)[C@@H]1C [Compound 189]
A) 0.1 to 1 µM

Q) Please report the measured IC50 for C[C@@H](O)CN(C)c1nc(OC[C@@]23CCCN2C[C@H](F)C3)nc2c(F)c(-c3ccc(F)c4sc(N)c(C#N)c34)c(C(F)(F)F)cc12 [Compound 71]
A) < 0.1 µM
